# log10 of IC50 values compiled below
# TESTED ON: UniProt:P43490
# Sequence (P43490 whole entry): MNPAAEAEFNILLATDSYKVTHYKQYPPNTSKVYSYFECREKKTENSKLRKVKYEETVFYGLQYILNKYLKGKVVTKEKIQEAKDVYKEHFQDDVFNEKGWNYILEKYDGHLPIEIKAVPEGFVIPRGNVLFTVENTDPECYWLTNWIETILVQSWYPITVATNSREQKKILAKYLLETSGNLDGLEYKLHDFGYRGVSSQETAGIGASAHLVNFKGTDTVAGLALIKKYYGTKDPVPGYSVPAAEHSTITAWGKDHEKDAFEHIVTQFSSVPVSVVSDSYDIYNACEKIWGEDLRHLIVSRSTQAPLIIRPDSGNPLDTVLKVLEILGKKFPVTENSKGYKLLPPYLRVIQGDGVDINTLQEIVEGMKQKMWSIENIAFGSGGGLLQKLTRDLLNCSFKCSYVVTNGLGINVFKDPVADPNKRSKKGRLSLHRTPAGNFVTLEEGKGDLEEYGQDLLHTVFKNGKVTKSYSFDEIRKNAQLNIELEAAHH
# EXPERIMENTAL DETAILS: Time-Resolved Fluorescence Resonance Energy Transfer (TR-FRET) Binding Assay of NAMPT
# TEST CONDITIONS: 6.8 nM NAMPT, 200 nM probe, equilibrated 3 hours, no substrates
# Procedure: Determination of the utility of compounds having Formula (I) as binders to and inhibitors of NAMPT was performed using Time-Resolved Fluorescence Resonance Energy Transfer (TR-FRET) binding assays. Time-Resolved Fluorescence Resonance Energy Transfer (TR-FRET) Binding Assay of NAMPT Six L were transferred to 384-well low-volume plates ([…] #3673). To this, 12 L of a 1.5× solution containing enzyme, probe and antibody were added. […]
Quick note: numbers are log10 of IC50, with µM as the unit.

Q. Give the measured log10 of IC50 of O=C(Nc1ccc(C2CN(C(=O)C3CCOC3)C2)cc1)N1CC(c2cccnc2)C1 (centres unmarked) .
A. -0.73
